tested_on: UniProtKB Q96EB6
experiment_description: mass spectrometry based SIRT1 deacetylation assay (activation)
Format: biochemical
test_context: 0.5 μM peptide substrate, 120 μM βNAD+, 10 nM SIRT1, 25 min at 25° C.; NA = not active in the assay
endpoint_label: EC1.5 (concentration of test compound that results in 150% activation of SIRT1) (NM)

See these solved cases before continuing.
EC1.5 (concentration of test compound that results in 150% activation of SIRT1) for "C[C@@H]1CN(Cc2cnc3sc(-c4ccccc4NC(=O)c4cccc(-c5ccccc5)c4)nc3c2)C[C@H](C)N1" ?
94

EC1.5 (concentration of test compound that results in 150% activation of SIRT1) for "O=C(Nc1ccccc1-c1nc2cc(CN3CCOCC3)cnc2s1)c1ccc2ccccc2n1" ?
593

EC1.5 (concentration of test compound that results in 150% activation of SIRT1) for "COCCN1CCN(Cc2cnc3sc(-c4ccccc4NC(=O)c4cccc(-c5cccc(C#N)c5)n4)nc3c2)CC1" ?
40

(a) Cc1nc(-c2cccnc2)sc1C(=O)Nc1ccccc1-c1nc2cc(CN[C@H]3CCNC3)cnc2s1
(b) O=C(Nc1ccccc1-c1nc2cc(CN3CCCC3)cnc2s1)c1cccc(-c2cccc(F)c2)n1
(c) COCCN1CCN(Cc2cnc3sc(-c4ccccc4NC(=O)c4cccc(-c5ccc(F)cc5)n4)nc3c2)CC1
(d) O=C(Nc1ccccc1-c1nc2cc(CN3CC[C@@H](F)C3)cnc2s1)c1ccc2ccccc2n1
Output the entries ranked by EC1.5 (concentration of test compound that results in 150% activation of SIRT1) from maximum down to minimum. Lab note: final answer is the ordered label list.
a, d, c, b

(I) O=C(Nc1ccccc1-c1nc2cc(CN3CCC(O)CC3)cnc2s1)c1ccc2ccccc2n1
(II) O=C(Nc1ccccc1-c1nc2cc(CN3CCNCC3)cnc2s1)c1cnc2ccccc2n1
(III) NC1CCN(Cc2cnc3sc(-c4ccccc4NC(=O)c4cccc(-c5ccncc5)c4)nc3c2)CC1
(IV) O=C(Nc1ccccc1-c1nc2cc(CN3CC[C@@H](F)C3)cnc2s1)c1cccc(-n2cnnn2)c1
(V) COCCN1CCN(Cc2cnc3sc(-c4ccccc4NC(=O)c4cccc(-c5ccccc5C#N)n4)nc3c2)CC1
Output the entries ranked by EC1.5 (concentration of test compound that results in 150% activation of SIRT1) from maximum down to minimum. Lab note: final answer is the ordered label list.
IV, V, II, III, I

* * *

tested_on: SIRT1 (Homo sapiens, UniProt Q96EB6)
Sequence (Q96EB6 1-747): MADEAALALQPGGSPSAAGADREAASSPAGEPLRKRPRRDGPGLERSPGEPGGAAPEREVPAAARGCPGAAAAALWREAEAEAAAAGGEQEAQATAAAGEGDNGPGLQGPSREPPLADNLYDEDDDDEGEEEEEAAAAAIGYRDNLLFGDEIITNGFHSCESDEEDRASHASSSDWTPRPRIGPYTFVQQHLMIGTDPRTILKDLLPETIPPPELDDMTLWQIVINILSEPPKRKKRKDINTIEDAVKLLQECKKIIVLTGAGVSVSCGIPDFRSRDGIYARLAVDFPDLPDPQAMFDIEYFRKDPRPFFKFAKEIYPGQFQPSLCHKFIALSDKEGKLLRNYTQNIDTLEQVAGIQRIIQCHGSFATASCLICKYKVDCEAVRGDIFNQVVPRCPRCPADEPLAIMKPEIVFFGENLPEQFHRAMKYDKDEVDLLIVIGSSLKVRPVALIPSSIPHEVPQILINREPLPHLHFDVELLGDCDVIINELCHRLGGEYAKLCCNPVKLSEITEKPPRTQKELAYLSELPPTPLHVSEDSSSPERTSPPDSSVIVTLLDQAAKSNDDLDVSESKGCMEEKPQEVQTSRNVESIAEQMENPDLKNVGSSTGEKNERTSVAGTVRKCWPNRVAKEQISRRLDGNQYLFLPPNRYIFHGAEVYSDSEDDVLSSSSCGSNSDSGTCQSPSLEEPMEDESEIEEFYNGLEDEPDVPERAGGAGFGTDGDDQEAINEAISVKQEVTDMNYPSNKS
experiment_description: mass spectrometry based SIRT1 deacetylation assay (activation)
Assay type: biochemical
test_context: 0.5 μM peptide substrate, 120 μM βNAD+, 10 nM SIRT1, 25 min at 25° C.; read-out: % FOLD ACT. (percent maximum fold activation of SIRT1)
endpoint_label: Emax (%)

See these solved cases before continuing.
Find the measured Emax: item O=C(Nc1ccccc1-c1nc2cc(CN3CCSCC3)cnc2s1)c1ccc2ccccc2n1 [Compound 108] , target or system SIRT1 (Homo sapiens, UniProt Q96EB6).
178

Find the measured Emax: item C[C@@H]1CN(Cc2cnc3sc(-c4ccccc4NC(=O)c4cccc(-c5cccnc5)c4)nc3c2)C[C@H](C)N1 [Compound 16] , target or system SIRT1 (Homo sapiens, UniProt Q96EB6).
405

Find the measured Emax: item Cc1nc(-c2cccc(C(=O)Nc3ccccc3-c3nc4cc(CN5CC[C@@H](F)C5)cnc4s3)c2)cs1 [Compound 32] , target or system SIRT1 (Homo sapiens, UniProt Q96EB6).
162

Find the measured Emax: item O=C(Nc1ccccc1-c1nc2cc(CN3CCC(F)(F)CC3)cnc2s1)c1ccc2ccccc2n1 [Compound 102] , target or system SIRT1 (Homo sapiens, UniProt Q96EB6).
131

Find the measured Emax: item C[C@@H]1CN(Cc2cnc3sc(-c4ccccc4NC(=O)c4cccc(-c5ccccc5)c4)nc3c2)C[C@H](C)N1 [Compound 24] , target or system SIRT1 (Homo sapiens, UniProt Q96EB6).
299

(1) COCCN1CCN(Cc2cnc3sc(-c4ccccc4NC(=O)c4cccc(-c5ccccc5F)n4)nc3c2)CC1 [Compound 134]
(2) O=C(Nc1ccccc1-c1nc2cc(CN3CCOCC3)cnc2s1)c1cccc(-c2cccc(F)c2)n1 [Compound 53]
From the recorded data, which exceeds the other in Emax: 1 or 2 ? To answer, give the label that identifies your chosen option.
2

Provenance of the data: patent US8268862B2
